Biological target: human α1A adrenergic receptor (Homo sapiens, UniProt P35348)
Construct: expressed in transfected cells; host or cells: HEK293 cells, pcDNA3.1(−), hygromycin B selection
Assay: Test Example 4: human α1A adrenergic receptor agonist activity (Ca flux, Fura-2, transfected HEK293 cells)
Assay type: cell-based
Settings: Table 1; Test Example 4; read-out: α1A receptor EC50
EXPERIMENTAL_READOUT: EC50

In one line, give reported EC50 of the entry COCc1n[nH]c2cc(OCCNC[C@H](O)c3cccc(NS(C)(=O)=O)c3)ccc12 [Example 6] .
> 2 µM

In one line, give reported EC50 of the entry CCCc1n[nH]c2cc(OCCNC[C@H](O)c3cccc(NS(C)(=O)=O)c3)ccc12 [Example 3] .
> 2 µM

In one line, give reported EC50 of the entry CN(C)C(=O)CCc1n[nH]c2cc(OCCNC[C@H](O)c3cccc(NS(C)(=O)=O)c3)ccc12 [Example 5] .
0.836 µM

====

Molecular target: human β3 adrenergic receptor (Homo sapiens, UniProt P13945)
Construct: the full length human β3 gene is obtained from a human genomic library; expressed in transfected cells; host or cells: CHO (Chinese Hamster Ovary) cells, pcDNA3, geneticin selection
Sequence (P13945 whole entry): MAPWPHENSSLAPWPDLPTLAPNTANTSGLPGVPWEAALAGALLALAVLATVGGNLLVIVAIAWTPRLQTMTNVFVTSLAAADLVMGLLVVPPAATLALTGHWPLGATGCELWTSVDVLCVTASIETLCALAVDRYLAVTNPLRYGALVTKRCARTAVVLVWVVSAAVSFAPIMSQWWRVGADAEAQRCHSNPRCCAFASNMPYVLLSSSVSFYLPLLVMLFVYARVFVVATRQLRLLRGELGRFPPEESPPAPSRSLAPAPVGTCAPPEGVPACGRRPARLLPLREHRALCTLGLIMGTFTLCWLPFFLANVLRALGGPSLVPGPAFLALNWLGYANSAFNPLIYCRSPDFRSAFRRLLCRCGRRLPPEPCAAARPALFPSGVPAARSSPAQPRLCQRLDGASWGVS
Assay: Test Example 1-B: human β3 adrenergic receptor agonist activity (cAMP-Screen kit, transfected CHO cells, 96-well)
Type: cell-based
Details: CHO; read-out: β3 receptor I.A.
EXPERIMENTAL_READOUT: Emax (%)

1) Cc1n[nH]c2cc(OCCNC[C@H](O)c3cccc(NS(=O)(=O)C(C)C)c3)ccc12 = 84
2) CCc1n[nH]c2cc(OCCNC[C@H](O)c3ccc(F)c(NS(C)(=O)=O)c3)ccc12 = 61
3) Cc1n[nH]c2cc(OCCNC[C@H](O)c3cccc(NS(=O)(=O)c4ccccc4)c3)ccc12 = 90
4) COc1n[nH]c2cc(OCCNC[C@H](O)c3cccc(NS(=O)(=O)c4ccccc4)c3)ccc12 = 75
5) CC(C)c1n[nH]c2cc(OCCNC[C@H](O)c3ccc(Cl)c(NS(C)(=O)=O)c3)ccc12 = 65
6) CCc1n[nH]c2cc(OCCNC[C@H](O)c3cccc(NS(=O)(=O)c4ccccc4)c3)ccc12 = 80

====

Biological target: human α1A adrenergic receptor (Homo sapiens, UniProt P35348)
Construct: expressed in transfected cells; host or cells: HEK293 cells, pcDNA3.1(−), hygromycin B selection
Test: Test Example 4: human α1A adrenergic receptor agonist activity (Ca flux, Fura-2, transfected HEK293 cells)
Type: cell-based
Details: Table 2; maximum response to norepinephrine taken as 100%
EXPERIMENTAL_READOUT: α1A receptor I.A. (%)

1) CCc1n[nH]c2cc(OCCNC[C@H](O)c3cccc(NS(C)(=O)=O)c3)ccc12 = 24

1 = NC[C@H](O)c1ccc(O)c(O)c1 [Norepinephrine, reference compound]
2 = CCCc1n[nH]c2cc(OCCNC[C@H](O)c3cccc(NS(C)(=O)=O)c3)ccc12
3 = CN(C)C(=O)CCc1n[nH]c2cc(OCCNC[C@H](O)c3cccc(NS(C)(=O)=O)c3)ccc12
Ascending sort, α1A receptor I.A.. Give the order by naming the labels one after another as requested.
2, 3, 1

====

Biological target: human α1A adrenergic receptor (Homo sapiens, UniProt P35348)
Construct: expressed in transfected cells; host or cells: HEK293 cells, pcDNA3.1(−), hygromycin B selection
Sequence (P35348 1-466): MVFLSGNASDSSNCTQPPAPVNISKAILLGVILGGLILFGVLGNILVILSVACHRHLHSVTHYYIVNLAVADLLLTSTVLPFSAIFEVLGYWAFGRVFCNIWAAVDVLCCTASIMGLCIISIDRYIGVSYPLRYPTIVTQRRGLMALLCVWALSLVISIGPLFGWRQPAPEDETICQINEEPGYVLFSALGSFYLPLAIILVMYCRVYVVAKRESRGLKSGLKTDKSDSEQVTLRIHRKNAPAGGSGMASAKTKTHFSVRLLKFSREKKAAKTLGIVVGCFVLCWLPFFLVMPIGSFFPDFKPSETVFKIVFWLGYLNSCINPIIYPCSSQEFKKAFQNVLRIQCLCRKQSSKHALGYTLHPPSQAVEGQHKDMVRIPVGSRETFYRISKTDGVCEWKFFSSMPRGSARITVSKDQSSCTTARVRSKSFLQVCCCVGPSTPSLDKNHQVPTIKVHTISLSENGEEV
Assay: Test Example 4: human α1A adrenergic receptor agonist activity (Ca flux, Fura-2, transfected HEK293 cells)
Assay type: cell-based
Conditions: HEK293; read-out: α1A receptor I.A.
Procedure: Measurement of Human α1A Adrenergic Receptor Agonist Activity The measurement of human α1A adrenergic receptor agonist activity is carried out using HEK293 cells transfected with pcDNA3.1(−) (manufactured by Invitrogen, Inc.) to which human α1A gene has been inserted. […] Subsequently, measurement of fluorescence intensity (excitation wavelength 340 nm and 380 nm, measurement wavelength 500 nm) is initiated at an interval of 2 seconds. […]
EXPERIMENTAL_READOUT: Emax (%)

1) CCc1n[nH]c2cc(OCCNC[C@H](O)c3cccc(NS(=O)(=O)CC)c3)ccc12 [Example 20] = 26

1 = COc1n[nH]c2cc(OCCNC[C@H](O)c3cccc(NS(=O)(=O)c4ccccc4)c3)ccc12 [Example 16]
2 = Cc1n[nH]c2cc(OCCNC[C@H](O)c3cccc(NS(=O)(=O)C(C)C)c3)ccc12 [Example 12]
3 = CCc1n[nH]c2cc(OCCNC[C@H](O)c3ccc(Cl)c(NS(C)(=O)=O)c3)ccc12 [Example 9]
// sort entries: Emax, high to low Give the order by naming the labels one after another as requested.
2, 3, 1
(2: 34%, 3: 11%, 1: 0%)

====

Assay: Test Example 10: saturation solubility in pure water
Assay type: physicochemical
Conditions: thermodynamic from solid, room temperature, shaken one hour
EXPERIMENTAL_READOUT: solubility at 1 h (mg/mL)

Answered examples (2):
1. CS(=O)(=O)Nc1cccc([C@@H](O)CNCCOc2ccc3c(C(F)(F)F)n[nH]c3c2)c1 = 71
2. CCc1n[nH]c2cc(OCCNC[C@H](O)c3cccc(NS(C)(=O)=O)c3)ccc12 = 204

a = CN(C)C(=O)CCc1n[nH]c2cc(OCCNC[C@H](O)c3cccc(NS(C)(=O)=O)c3)ccc12
b = CCCc1n[nH]c2cc(OCCNC[C@H](O)c3cccc(NS(C)(=O)=O)c3)ccc12
Looking at recorded values for solubility at 1 h, does a or b come in lower? State the label of the item chosen.
b
(b: 50 mg/mL, a: 491 mg/mL)

====

Target: human β3 adrenergic receptor (Homo sapiens)
Construct: the full length human β3 gene is obtained from a human genomic library; expressed in transfected cells; host or cells: CHO (Chinese Hamster Ovary) cells, pcDNA3, geneticin selection
Experiment: Test Example 1-B: human β3 adrenergic receptor agonist activity (cAMP-Screen kit, transfected CHO cells, 96-well)
Type: cell-based
Conditions: CHO; read-out: β3 receptor I.A.
EXPERIMENTAL_READOUT: Emax (%)

1. CCc1n[nH]c2cc(OCCNC[C@H](O)c3cccc(NS(=O)(=O)CC)c3)ccc12 = 80
2. CCc1n[nH]c2cc(OCCNC[C@H](O)c3cccc(NS(=O)(=O)C(C)C)c3)ccc12 = 80
3. CCc1n[nH]c2cc(OCCNC[C@H](O)c3ccc(Cl)c(NS(C)(=O)=O)c3)ccc12 = 58
4. CCc1n[nH]c2cc(OCCNC[C@H](O)c3cccc(NS(C)(=O)=O)c3)ccc12 = 76
5. CS(=O)(=O)Nc1cc([C@@H](O)CNCCOc2ccc3c(C(F)(F)F)n[nH]c3c2)ccc1Cl = 65
6. CS(=O)(=O)Nc1cccc([C@@H](O)CNCCOc2ccc3c(C(F)(F)F)n[nH]c3c2)c1 = 78
7. CS(=O)(=O)Nc1cc([C@@H](O)CNCCOc2ccc3c(C(F)(F)F)n[nH]c3c2)ccc1F = 53
8. CC(C)c1n[nH]c2cc(OCCNC[C@H](O)c3cccc(NS(C)(=O)=O)c3)ccc12 = 74

====

Biological target: human β2 adrenergic receptor (Homo sapiens, UniProt P07550)
Construct: expressed in transfected cells; host or cells: CHO (Chinese Hamster Ovary) cells, pcDNA3
Sequence (P07550 whole entry): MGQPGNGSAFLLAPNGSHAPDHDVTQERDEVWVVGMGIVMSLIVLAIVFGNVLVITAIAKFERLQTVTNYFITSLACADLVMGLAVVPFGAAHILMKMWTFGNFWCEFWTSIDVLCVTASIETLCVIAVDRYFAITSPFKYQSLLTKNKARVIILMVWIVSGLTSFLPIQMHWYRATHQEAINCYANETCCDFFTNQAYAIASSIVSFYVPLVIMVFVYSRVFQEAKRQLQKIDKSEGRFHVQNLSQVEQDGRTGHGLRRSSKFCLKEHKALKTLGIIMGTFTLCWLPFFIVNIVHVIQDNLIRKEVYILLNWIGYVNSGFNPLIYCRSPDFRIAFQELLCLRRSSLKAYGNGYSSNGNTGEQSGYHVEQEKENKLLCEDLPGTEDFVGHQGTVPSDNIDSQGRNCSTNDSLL
Test: Test Example 3-B: human β2 adrenergic receptor agonist activity (method of Test Example 1-B)
Format: cell-based
Conditions: Table 2; Test Example 3-B
EXPERIMENTAL_READOUT: β2 receptor EC50

Answered examples (4):
1) CC(C)c1n[nH]c2cc(OCCNC[C@H](O)c3cccc(NS(C)(=O)=O)c3)ccc12 [Example 1] = a)
2) CCc1n[nH]c2cc(OCCNC[C@H](O)c3cccc(NS(=O)(=O)C(C)C)c3)ccc12 [Example 13] = b)
3) CCc1n[nH]c2cc(OCCNC[C@H](O)c3cccc(NS(=O)(=O)CC)c3)ccc12 [Example 20] = a)
4) CCc1n[nH]c2cc(OCCNC[C@H](O)c3cccc(NS(C)(=O)=O)c3)ccc12 [Example 2] = a)

In one line, give reported β2 receptor EC50 of the entry CCc1n[nH]c2cc(OCCNC[C@H](O)c3ccc(Cl)c(NS(C)(=O)=O)c3)ccc12 [Example 9] .
a)

In one line, give reported β2 receptor EC50 of the entry Cc1n[nH]c2cc(OCCNC[C@H](O)c3cccc(NS(=O)(=O)C(C)C)c3)ccc12 [Example 12] .
a)

In one line, give reported β2 receptor EC50 of the entry CS(=O)(=O)Nc1cccc([C@@H](O)CNCCOc2ccc3c(C(F)(F)F)n[nH]c3c2)c1 [Example 4] .
a)

In one line, give reported β2 receptor EC50 of the entry CCc1n[nH]c2cc(OCCNC[C@H](O)c3ccc(F)c(NS(C)(=O)=O)c3)ccc12 [Example 8] .
a)

In one line, give reported β2 receptor EC50 of the entry Cc1n[nH]c2cc(OCCNC[C@H](O)c3cccc(NS(=O)(=O)c4ccccc4)c3)ccc12 [Example 14] .
b)

In one line, give reported β2 receptor EC50 of the entry CCc1n[nH]c2cc(OCCNC[C@H](O)c3cccc(NS(=O)(=O)c4ccccc4)c3)ccc12 [Example 15] .
b)

In one line, give reported β2 receptor EC50 of the entry CS(=O)(=O)Nc1cc([C@@H](O)CNCCOc2ccc3c(C(F)(F)F)n[nH]c3c2)ccc1Cl [Example 11] .
a)

In one line, give reported β2 receptor EC50 of the entry CN(C)C(=O)CCc1n[nH]c2cc(OCCNC[C@H](O)c3cccc(NS(C)(=O)=O)c3)ccc12 [Example 5] .
a)

In one line, give reported β2 receptor EC50 of the entry CS(=O)(=O)Nc1cc([C@@H](O)CNCCOc2ccc3c(C(F)(F)F)n[nH]c3c2)ccc1F [Example 10] .
a)

In one line, give reported β2 receptor EC50 of the entry COc1n[nH]c2cc(OCCNC[C@H](O)c3cccc(NS(=O)(=O)c4ccccc4)c3)ccc12 [Example 16] .
a)

In one line, give reported β2 receptor EC50 of the entry CCCc1n[nH]c2cc(OCCNC[C@H](O)c3cccc(NS(C)(=O)=O)c3)ccc12 [Example 3] .
a)

In one line, give reported β2 receptor EC50 of the entry CC(C)c1n[nH]c2cc(OCCNC[C@H](O)c3ccc(Cl)c(NS(C)(=O)=O)c3)ccc12 [Example 7] .
a)
